Target: T1, recombinant human EphA5 (rhEphA5) antigen (human, UniProt P54756 25-573)
T1 construct: also called human EphA5 (R and D systems, Cat. No. 3036-A5); recombinant EphA5
T1 sequence (P54756 25-573 limits assumed): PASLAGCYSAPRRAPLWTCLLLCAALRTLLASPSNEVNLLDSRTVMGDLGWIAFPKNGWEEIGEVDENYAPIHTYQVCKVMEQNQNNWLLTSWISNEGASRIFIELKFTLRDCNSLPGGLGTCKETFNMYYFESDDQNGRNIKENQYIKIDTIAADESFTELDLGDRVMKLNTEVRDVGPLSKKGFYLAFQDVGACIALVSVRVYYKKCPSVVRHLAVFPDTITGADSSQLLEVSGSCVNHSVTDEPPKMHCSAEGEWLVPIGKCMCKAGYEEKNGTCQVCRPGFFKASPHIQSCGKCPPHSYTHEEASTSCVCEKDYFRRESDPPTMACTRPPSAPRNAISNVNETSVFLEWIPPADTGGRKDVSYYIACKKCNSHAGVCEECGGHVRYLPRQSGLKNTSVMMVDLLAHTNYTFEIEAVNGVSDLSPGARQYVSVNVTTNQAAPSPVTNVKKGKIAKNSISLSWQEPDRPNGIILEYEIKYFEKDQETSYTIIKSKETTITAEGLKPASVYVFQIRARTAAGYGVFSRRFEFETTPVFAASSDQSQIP
Experiment: SPR single-cycle kinetics (Biacore T200), IgG from HEK supernatant captured on anti-human IgG CM5 chip, rhEphA5 as analyte, 1:1 fit

- binder: "VH4/VK2 humanized 11C12 antibody (antibody, human IgG1, kappa, V domains shown, Human IgG1/kappa; tested as HEK293 EBNA supernatant; also called H4K2) VH: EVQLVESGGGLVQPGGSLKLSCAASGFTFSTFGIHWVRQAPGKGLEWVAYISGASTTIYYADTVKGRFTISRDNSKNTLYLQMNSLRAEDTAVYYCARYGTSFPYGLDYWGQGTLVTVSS VL: DIVMTQSPDSLAVSLGERATINCKASQSVDYDGDSYMNWYQQKPGKAPKLLIYGASNLESGIPDRFSGSGSGTDFTLTISRLEPEDAASYYCQQSNEDPFTFGQGTKLEIKR"
  koff: "0.00114 s⁻¹"
- binder: "VH6/VK4 humanized 11C12 antibody (antibody, human IgG1, kappa, V domains shown, Human IgG1/kappa; tested as HEK293 EBNA supernatant; also called H6K4) VH: EVQLVESGGGLVQPGGSLKLSCAASGFTFSTFGIHWVRQAPGKGLEWVASISGASTTIYYADSVKGRFTISRDNSKNTLYLQMNSLRAEDTAVYYCARYGTSFPYGLDYWGQGTLVTVSS VL: DIVMTQSPDSLAVSLGERATINCKSSQSVDYDGDSYMNWYQQKPGKAPKLLIYGASNLESGIPDRFSGSGSGTDFTLTISRLEPEDAASYYCQQSNEDPFTFGQGTKLEIKR"
  koff: "0.209 s⁻¹"
- binder: "VH0/VK1 (antibody, human IgG1, kappa, V domains shown, tested as HEK supernatant; also called control antibody (chimeric heavy chain with humanized VK1 light chain)) VH: EVTLKESGGGLVQPGGSRKLSCAASGFTFSTFGIHWVRQAPEKGLEWVAYISGASTTIYYADTVKGRFTISRDNPKNTLFLQMTSLRSEDTAMYYCARYGTSFPYGLDYWGQGTSVTVSS VL: DIVMTQSPGSLAVSLGERATINCKASQSVDYDGDSYMNWYQQKPGKAPKLLIYGASNLESGIPDRFSGSGSGTDFTLTISRLEEEDAASYYCQQSNEDPFTFGQGTKLEIKR"
  koff: "0.00137 s⁻¹"
